measured.target: SARS-CoV-2 Main Protease (SARS-CoV-2)
For each record, write down the corresponding pIC50.
Formally, pIC50 is defined as -log10 of the concentration c, with c in mol/L.

Lab note: measured pIC50 of `CCCc1cc(Cl)cc(CC(=O)Nc2cncc3ccccc23)c1` was 5.58

`O=C(Cc1cc(Cl)cc(N2CCn3c(nnc3C(F)(F)F)C2)c1)Nc1cncc2ccccc12` yielded pIC50 of 5.70

Documented pIC50 of CC(C)CN1CC(C)(C(=O)Nc2cncc3ccccc23)c2cc(Cl)ccc2S1(=O)=O (stereo not given) : 6.82

What the record says about CC(NC(=O)CCl)c1cc(Cl)cc(-c2ccc(S(N)(=O)=O)cc2)c1 (stereo not given) : pIC50 is 6.33

Given item CC1(C(=O)Nc2cncc3ccc(S(C)(=O)=O)cc23)CNC(=O)c2ccc(Cl)cc21 (stereo not given) , the value recorded as its pIC50 is 5.18

###

I'd appreciate it if you could supply IC50 values for the items below.
measured.target: SARS-CoV-2 Main Protease (SARS-CoV-2)
Output spec: scalar in µM, unitless text.

molecule CN(C)C(=O)CN1CCC(C(=O)Nc2cncc3ccccc23)c2cc(Cl)ccc21 (stereo not drawn) , IC50 observed: 2.54

Per the record, `CN(C(=O)Cn1nnc2ccccc21)c1ccc(Oc2ccc(C(F)(F)F)cn2)cc1` has IC50 of 37.8

Measured IC50 of O=C(COCC1(C(=O)Nc2cncc3ccccc23)CCOc2ccc(Cl)cc21)Nc1ncc[nH]1 (stereo not drawn) : 1.99

Record C[C@H]1C[C@@H](C(=O)Nc2cncc3ccccc23)c2cc(Cl)ccc2O1 (stereo in doubt) , field IC50: 20.1

Lab book: IC50 of CC(C)(C)c1ccc(N(C(=O)c2cocn2)C(C(=O)N2CCC(c3cccc(F)c3)CC2)c2cccnc2)cc1 (stereo not drawn) noted as 9.46

###

measured.target: SARS-CoV-2 Main Protease (SARS-CoV-2) (UniProt P0DTD1)
pIC50: −log10 of the molar value.
Entry flag: 1 if pIC50 reaches 5; -1 if it does not.

Test whether the compound `Cc1ccc2nc(Nc3cc(Cl)cc(CC(=O)Nc4cncc5ccccc45)c3)sc2c1` records pIC50 of 5 or higher. -1

Quick check, pIC50 >= 5? `O=C(Nc1cnccc1Cl)c1cc(Cl)ccc1O` -1

Is pIC50 at least 5? Consider CCC(C(=O)O)N1CCCC(NC(=O)c2ccc3ccccc3c2)C1 (stereo not given) -1

Is it the case that `CCC(=O)Nc1ccc(N(Cc2ccccc2)C(=O)n2nnc3ccccc32)cc1` has pIC50 reaching or exceeding 5? -1

Please check the record `Cc1nc2sccn2c1CN(C)C(=O)c1cnc2sccn2c1=O` and state if its pIC50 is at or above 5. -1

In plain terms: is recorded pIC50 at least 5 for `O=C(Cc1cc(Cl)cc(-c2nnc[nH]2)c1)Nc1cncc2ccccc12` ? 1

Decide: pIC50 of `Nc1nn(C(=O)Cc2cccc(Cl)c2)c2ccccc12` >= 5? -1

Is it the case that CN(C)C(=O)CC1(C(=O)Nc2cncc3ccccc23)CCOc2ccc(Cl)cc21 (stereo not given) has pIC50 reaching or exceeding 5? 1

Does the reported pIC50 for `CC(=O)C(=O)N1CCN(Cc2cccc(Cl)c2)CC1` fall at or above the 5 mark? -1

Is pIC50 at least 5? Consider CN1CCCC(N(C(=O)c2cocn2)C(C(=O)NCCc2cccc(F)c2)c2cccnc2)C1 (stereo not given) -1

In plain terms: is recorded pIC50 at least 5 for O=C(CN1CC(C(=O)Nc2cncc3cc(F)ccc23)c2cc(Cl)ccc2C1=O)NC1COC1 (stereo not given) ? 1

Is it the case that O=C(NCCc1cccc(F)c1)C(c1cccnc1)N(C(=O)c1ccco1)[C@H]1C[C@H](c2cc(F)cc(F)c2)C1 (stereo not given in full) has pIC50 reaching or exceeding 5? -1

Kindly determine if pIC50 recorded for CO[C@@H]1COC[C@H]1n1cc(C(=O)N(c2ccc(C(C)(C)C)cc2)C(C(=O)NCCc2cccc(F)c2)c2cccnc2)nn1 (stereo in doubt) is above or exactly 5. -1

Given the entry CC(C)(CNC(=O)C1CNC(=O)N1)N1CCc2ccccc2C1 (stereo not given) , answer whether its pIC50 meets or surpasses 5. -1
